Tested Target: Induced myeloid leukemia cell differentiation protein Mcl-1 (Homo sapiens)
Sequence (Q07820 whole entry): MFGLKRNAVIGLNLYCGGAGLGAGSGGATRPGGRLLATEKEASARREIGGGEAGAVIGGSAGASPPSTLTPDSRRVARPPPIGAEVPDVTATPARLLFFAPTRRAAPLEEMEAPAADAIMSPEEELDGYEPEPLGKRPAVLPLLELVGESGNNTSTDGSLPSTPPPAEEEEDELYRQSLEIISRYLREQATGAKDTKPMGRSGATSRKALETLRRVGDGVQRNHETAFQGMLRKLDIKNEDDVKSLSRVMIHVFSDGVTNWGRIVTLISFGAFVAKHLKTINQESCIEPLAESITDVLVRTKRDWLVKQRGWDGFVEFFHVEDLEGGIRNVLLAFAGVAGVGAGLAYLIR
Assay Name: Inhibition of Mcl1 (unknown origin) assessed as inhibition of Mcl1-Noxa interaction by TR-FRET assay
Measured Attribute: IC50

Q: Tell me its IC50 given COc1cc2c(cc1OC(C)C)[C@H](c1ccc(Cl)cc1)N(c1ccc(N(C)C[C@H]3CC[C@H](N4CCN(C)C(=O)C4)CC3)cc1)C(=O)C2 as the entry.
Result: > 50 µM

---

Assay Name: AUC (0 to 24 hrs) in human SJSA1 cells xenografted rat assessed as mouse survival at 20 mg/kg, po qd
Assay type: ADME, organism-based, SJSA-1
Parameters: time < 24 hr, dose 20 mg/kg, route oral
Particulars: in vivo
Measured Attribute: AUC at 24 h (µM·h)
Entry rule: numbers only, all in µM·h.

Q: Give the measured AUC at 24 h for COc1cc2c(cc1OC(C)C)[C@H](c1ccc(Cl)cc1)N(c1ccc(N(C)C[C@H]3CC[C@H](N4CCN(C)C(=O)C4)CC3)cc1)C(=O)C2
Result: 163
